Hi there, I'd appreciate the recorded %Inh for every entry that follows.
tested on: BMPR1B; conditions: concentration: 1 μM, replicates: in singlicate; n = 1;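 further: KINOMEscan kinase panel screen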
One number for each entry, in %.

COc1cc2ncn(-c3cc(OCc4ccncc4Br)c(C(N)=O)s3)c2cc1OC : 6
COc1cccc(-n2cnc3c(N)ncnc32)c1 : 24
CCC(=O)c1c(-c2ccccc2)c2cc(Cl)ccc2c(=O)n1Cc1ccc(C(=O)O)cc1 : 0

// batch mode: one %Inh value per listed entry
1. COc1ccc(-n2cnc3c(N)ncnc32)cc1
2. Cc1cccc(-c2nc(Nc3ccc4c(cnn4C)c3)c3ccccc3n2)n1
3. Cc1ccc(Oc2ccc(Nc3ncnc4cc[nH]c34)cc2C)cn1
4. FC(F)(F)c1ccc(-c2ncn(CCCN3CCOCC3)c2-c2ccncc2)cc1

Response given:
0
0
1
0

// batch mode: one %Inh value per listed entry
1. Cc1ccccc1COc1cc(-n2cnc3cc(Cl)ccc32)sc1C(N)=O
2. O=C(Nc1n[nH]c2nc(-c3ccccc3)c(Br)cc12)C1CC1
3. CCC(=O)c1c(-c2ccccc2)c2cc(Cl)ccc2c(=O)n1Cc1cc(C(=O)NC2CC2)n(C)n1

Response given:
1: 12; 2: 0; 3: 0

====

tested on: PCTK2; construct: gene CDK17; settings: concentration: 1 μM, replicates: in singlicate; n = 1
QUANTITY_NAME: %Inh (%)
One number for each entry, in %.

In the examples that follow, each entry is paired with its recorded %Inh.
CCC(=O)c1c(-c2ccccc2)c2cc(Cl)ccc2c(=O)n1Cc1cc(S(C)(=O)=O)n(CCC(C)(C)O)n1 : 21
Cc1nc(N(C)[C@H]2CN(C(=O)CC#N)CC[C@H]2C)c2cc[nH]c2n1 : 0
COc1ccc(Nc2nccc(N3CCC(NS(=O)(=O)c4ccc(NC(C)=O)cc4)C3)n2)cc1 (centres unmarked) : 0
COc1cc2ncn(-c3cc(OCc4ccncc4Br)c(C(N)=O)s3)c2cc1OC : 14
CCC(=O)c1c(-c2ccccc2)c2cc(Cl)ccc2c(=O)n1Cc1cc(S(C)(=O)=O)n(CC(N)=O)n1 : 0
COc1ccc(CNC(=O)NC2CCN(c3ccnc(Nc4ccc(F)cc4)n3)C2)cc1 (centres unmarked) : 18
COc1ccc(-c2cc3c(C)nc(N)nc3n([C@H]3CC[C@H](OCCO)CC3)c2=O)cn1 : 3

The reported %Inh of the compound "CCc1ccc(-c2ccc3c(c2)-c2nn(C)cc2S(=O)(=O)N3C)cc1" was 0

====

Hi there, I'd appreciate the recorded %Inh for every entry that follows.
system: CSNK1A1; conditions: concentration: 1 μM, replicates: in singlicate; n = 1
Give bare numbers, in %.

In the examples that follow, each entry is paired with its recorded %Inh.
COc1cc(Nc2nccc(N3CCC(NC(=O)C4COc5ccccc5O4)C3)n2)cc(OC)c1OC (stereo not drawn) : 0
O=c1cc(N2CCOCC2)nc2n(Cc3ccc(F)c(Cl)c3)ccn12 : 0

// batch mode: one %Inh value per listed entry
1. Nc1n[nH]c2nnc(-c3ccccc3)c(-c3ccccc3)c12
2. CC(C)(C)c1ccc(C(=O)Nc2cn3cc(-c4ccccc4)ccc3n2)cc1

Response given:
1. 0
2. 0

====

Hi there, I'd appreciate the recorded %Inh for every entry that follows.
tested on: ULK1; details: concentration: 1 μM, replicates: in singlicate; n = 1
One number for each entry, in %.

In the examples that follow, each entry is paired with its recorded %Inh.
COC(=O)c1c(-c2ccccc2)c2cc(Br)ccc2c(=O)n1Cc1ccc(S(C)(=O)=O)cc1 : 0
Nc1n[nH]c2ncc(-c3ccccc3)cc12 : 3

Let's switch to this compound now.
The reported %Inh of the compound "Cc1ccc(-c2ccc3c(ccc4sc5c(c43)NC[C@@H](C)N=C5N(C)C)n2)cn1" was 0
